System: MS2 coat protein
TEST: apparent KD of MS2 coat protein; designed switch direction (-1 OFF switch, 1 ON switch): -1; higher = weaker reporter binding
CONDITION INFO: Eterna round: R95; input ligand: microRNA oligo, concentration not stated
Could you label it MET if measured apparent KD of MS2 coat protein is 20 nM or higher, and NOT MET otherwise?

GUGUAGAUAGGAUAUGCGUGAGUCUAGCGAAGCUAGGCUCUACAUGAGGAUCACCCAUGUAGAAGGGUCUACAC [Dot plot directed A v14] (puzzle: Exclusion 2)
NOT MET
UGUACUAUGCGUGCUGACAUGCGUAGUGCAGCAGGUGUUACAUGAGGAUCACCCAUGUCCUCAUUUGCUCGUCUUAU [SL-sv3-2.07 JL mod] (puzzle: Sensor v3, turn-off variant 2)
MET
CGCAUACUAGGAUAUACAUGAGGAUCACCCAUGUCGCCGGGCCCACUCAUACUAAAACGUAGAAGGAGUUUGCC [Enlalari] (puzzle: Exclusion 3)
NOT MET

Kindly determine if apparent KD of MS2 coat protein recorded for CUCCUCGUGGCGCCUAAACACAUGAGGAUCACCCAUGUACAGGCUUUUUGCCGUCUUAUAAUAAAACCGAGGAGACG [Ataesarxe] (puzzle: Sensor v3, turn-off variant 1) is above or exactly 20 nM.
NOT MET

Kindly determine if apparent KD of MS2 coat protein recorded for CUGGUGUGAGGAUAUCAAAGACCUCGGGAUAGUAGCGAGGAUGAGAAGGCACAUGAGGAUCACCCAUGUAACAA [Edmaer] (puzzle: Exclusion 4) is above or exactly 20 nM.
MET
